- PROCEDURE DETAILS: Solubility in organic solvents
- Format: physicochemical
- MEASUREMENT CONTEXT: at 50°C; Hyzole-296 (diallylethane compound)
Recorded solubility (% by weight) in organic solvents: Hyzole-296, one value per entry.
ASSAY READOUT: solubility (% by weight) in organic solvents: Hyzole-296

INSERT INTO results (compound, measurement) VALUES
  ('CCN(CC)c1ccc2c(c1)Oc1ccc(NCc3ccccc3)cc1C21OC(=O)c2ccccc21 (stereo not drawn)', 1.40),
  ('CCCCN(CCCC)c1ccc2c(c1)Oc1ccc(NCc3ccccc3Cl)cc1C21OC(=O)c2ccccc21 (stereo not drawn)', 4.80),
  ('CCCCN(CCCC)c1ccc2c(c1)Oc1ccc(NCc3cccc(Cl)c3)cc1C21OC(=O)c2ccccc21 (stereo not drawn)', 6.30),
  ('CCN(CC)c1ccc2c(c1)Oc1ccc(NCc3ccccc3Cl)cc1C21OC(=O)c2ccccc21 (stereo not drawn)', 1.80),
  ('CCCCN(CCCC)c1ccc2c(c1)Oc1ccc(NCc3ccc(Cl)cc3)cc1C21OC(=O)c2ccccc21 (stereo not drawn)', 7.20),
  ('CCN(CC)c1ccc2c(c1)Oc1ccc(NCc3ccc(Cl)cc3)cc1C21OC(=O)c2ccccc21 (stereo not drawn)', 3.10);
